tested on: Heliothis virescens (tobacco budworm); test: Heliothis virescens egg test on artificial diet; format: in vivo; details: 96 h, 200 ppm (concentration in well 18 ppm), eggs 0-24 h old, 4 days, egg mortality, larval mortality, growth regulation

| COMPOUND | pest or weed control at 200 ppm |
| --- | --- |
| Cc1nc(C2=CC(c3cc(Cl)cc(Cl)c3)(C(F)(F)F)OC2)ccc1C(=O)NCC(=O)NCC(F)(F)F (stereo not shown) [Compound C5] | ≥ 80% |
| Cc1cc(C2=CC(c3cc(Cl)cc(Cl)c3)(C(F)(F)F)OC2)ccc1C(=O)NCC1CCS1 (stereo not shown) [Compound A80] | ≥ 80% |
| Cc1cc(NC(=O)c2ccc(C3=CC(c4cc(Cl)cc(Cl)c4)(C(F)(F)F)OC3)cc2C)n(C)n1 (stereo not shown) [Compound A67] | ≥ 80% |
| Cc1csc(NC(=O)c2ccc(C3=CC(c4cc(Cl)cc(Cl)c4)(C(F)(F)F)OC3)cc2C)n1 (stereo not shown) [Compound A11] | ≥ 80% |
| Cc1cc(C2=CC(c3cc(Cl)cc(Cl)c3)(C(F)(F)F)OC2)ccc1C(=O)NCCN1CCN(Cc2ccccc2)CC1 (stereo not shown) [Compound A54] | ≥ 80% |
| Cc1cc(C2=CC(c3cc(Cl)cc(Cl)c3)(C(F)(F)F)OC2)ccc1C(=O)Nc1ccccc1Cl (stereo not shown) [Compound A56] | ≥ 80% |
| COc1ccc(CNC(=O)c2ccc(C3=CC(c4cc(Cl)cc(Cl)c4)(C(F)(F)F)OC3)nc2C)cc1 (stereo not shown) [Compound C12] | ≥ 80% |

Data origin, for the record: patent US20140343049A1
